Molecular target: T1, recombinant human IL-19 (Homo sapiens, UniProt Q9UHD0)
T1 sequence (Q9UHD0 25-177): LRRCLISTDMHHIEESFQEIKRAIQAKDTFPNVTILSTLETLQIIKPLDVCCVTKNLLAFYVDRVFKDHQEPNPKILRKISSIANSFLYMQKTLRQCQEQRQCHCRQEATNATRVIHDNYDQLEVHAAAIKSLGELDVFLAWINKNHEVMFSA
Assay: Bio-layer interferometry (BLI) binding kinetics and affinity (Octet Red96)
Settings: 25° C.; 1:1 binding model
Property: kon; scope: individual molecules
Measured Metric: kon

1) R_1: rabbit-derived IL-19 antibody; LCVR SEQ ID NO: 34, HCVR SEQ ID NO: 38 (antibody, V domains shown) VH: QQLEESGGGLVQPEGSLTLTCTASGFSFSSSYWICWVRQAPGKGLEWLACIDTGVSGDTYYANWAEGRFTISKTSSTTVTLQMTSLTAADTATYFCARDIFGSAIDNSLWGPGTLVTVSS VL: AIDMTQTPASVSEPVGGTVTIKCQASQSISSYLAWYQQKPGQPPKLLIYSASTLASGVPSRFRGSGSGREFTLTISDLECADAATYYCQCHYHGSSYWDNSFGGGTEVVVK : 33300 M⁻¹ s⁻¹
2) R_3: rabbit-derived IL-19 antibody; LCVR SEQ ID NO: 50, HCVR SEQ ID NO: 54 (antibody, V domains shown) VH: QCQSLEESGGGLVEPEGSLTLTCKASGFSFSSSYWICWVRQAPGKGLEWIACTDTFSGDTYYASWAKGRFTISKTSSTTVTLRMTSLTDADTATYFCARDIFGTAVHISLWGPGTLVTVSS VL: ADVVMTQTPSSVEAAVGGTVTIKCQASQSIGSSLAWYQQKPGQRPKLLIYGASTLASGVPSRFKGSGSGTEFTLTISDLECADAATYYCQCHYHGSSYWDNSFGGGTEVVVK : 391000 M⁻¹ s⁻¹
3) R_4: rabbit-derived IL-19 antibody; LCVR SEQ ID NO: 58, HCVR SEQ ID NO: 62 (antibody, V domains shown) VH: QCQSVEESGGRLVTPGTPLTLTCTVSGIDLSIYAMGWVRQAPGKGLEYIGIIDTTGTAYYARWAKGRFTISKTSATVALKITSPTTEDTATYFCARDSGSLYYGSYALWGPGTLVTVSS VL: ADVVMTQTPSSVSEPVGGTVTIKCQASQSIYSYLSWYQQKPGQPPKLLIYEASKLASGVPSRFKGSGSGTQFTLTISGVECADAATYYCQQGYSSSNVDNTFGGGTEVVVT : 152000 M⁻¹ s⁻¹
